- Tested on: 817829-284-R-J1-PDC complex spheroid viability;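 further: spheroids exposed to compounds for 7 days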
- experimental-details: Anticancer human tumor 817829-284-R-J1-PDC patient-derived colon adenocarcinoma cell line growth inhibition [POLQ]
- experimental-parameters: curve of first compound; second compound 3.16 µM
IC50 by entry:
measured-parameter: IC50 (nM)

{"compound": "CCc1cc2c(N3CCc4c(cc(Cn5ccnc5)cc4-c4cn(C)nc4C(F)(F)F)C3=O)cc(C)nc2c(OC)n1 + COC1C(OC(N)=O)C(O)C(Oc2ccc3c(O)c(NC(=O)c4ccc(O)c(CC=C(C)C)c4)c(=O)oc3c2C)OC1(C)C", "value-observed": 3380}
{"compound": "CC1COCCN1c1cc(C2(S(C)(=N)=O)CC2)nc(-c2ccnc3[nH]ccc23)n1 (centres undefined) + COC1C(OC(N)=O)C(O)C(Oc2ccc3c(O)c(NC(=O)c4ccc(O)c(CC=C(C)C)c4)c(=O)oc3c2C)OC1(C)C", "value-observed": 169}
{"compound": "O=C(c1cc(Cc2n[nH]c(=O)c3ccccc23)ccc1F)N1CCN(C(=O)C2CC2)CC1 + Cc1cccc(N(C)C(=O)C2C(O)CCN2c2nc(C)cc(C(F)(F)F)c2C#N)c1", "value-observed": 3650}
{"compound": "COc1cccc2c1C(=O)c1c(O)c3c(c(O)c1C2=O)CC(O)(C(=O)CO)CC3OC1CC(N)C(O)C(C)O1 (centres undefined) + COC1C(OC(N)=O)C(O)C(Oc2ccc3c(O)c(NC(=O)c4ccc(O)c(CC=C(C)C)c4)c(=O)oc3c2C)OC1(C)C", "value-observed": 143}

Source: PubChem BioAssay AID1963839
